System: HCT-15 colon
Test: NCI tumour cell line growth inhibition, 48 h
observed_property: TGI

Please review the following examples before continuing.
• Oc1ccc(/C=C/c2ccc(O)cc2)cc1 = > 100 µM
• CN(C)c1ccc(C=NC23CC4CC(CC(C4)C2)C3)cc1 = > 100 µM

Next:
Prompt: Need TGI, item Cc1nn(C(=O)Cc2ccccc2)c2c1C(c1ccc3ccccc3c1O)SC(N)=N2 (stereo not drawn)
Completion: > 100 µM

###

System: NCI-H522 lung
Assay: NCI tumour cell line growth inhibition, 48 h; in the data active = GI50 below about 0.43 µM; inactive = the rest
In this exercise, the only acceptable responses are TRUE (active), FALSE (inactive)

Some solved entries appear below for comparison.
* NS(=O)(=O)c1ccc(Nc2ncc(-c3ccccc3)o2)cc1 | FALSE
* O=C1c2ccc3c4c(ccc(c24)C(=O)N1CCCNCc1ccccc1F)C(=O)N(CCCNCc1ccccc1F)C3=O | TRUE
* O=C(Nc1cccc(-n2cc(-c3ccncc3)c(-c3ccc(Cl)c(O)c3)n2)c1)Nc1cccc(C(F)(F)F)c1 | FALSE

Continue with the next molecule.
Prompt: Recorded test call requested for CC1=C(C(=O)Nc2ccc(Cl)c(Cl)c2)C(c2ccccc2Cl)NC(=S)N1 (centres undefined)
Completion: FALSE

###

System: UACC-257 melanoma
Assay: NCI tumour cell line growth inhibition, 48 h
observed_property: TGI

Please review the following examples before continuing.
- CC(=O)OCC1OC(OC2CCCC[Si](c3ccccc3)(c3ccccc3)O2)C(OC(C)=O)C(OC(C)=O)C1OC(C)=O (configuration not stated): > 100 µM
- CC[N+](C)(CC)CCNC(=O)C(O)(c1ccccc1)c1ccccc1: > 100 µM

Hello, I would appreciate it if you could give TGI for each entry below.
1. NS(=O)(=O)c1ccc(Nc2ncc(-c3ccccc3)o2)cc1
2. CN=c1oc2ccccc2cc1C(N)=O
3. CCCCCOC(=O)C(=O)Nc1n[nH]nc1C(N)=O
4. CC12OC3(O)C4C5CC(C6C5C3C61)C42 (configuration not stated)

Completion:
> 25 µM
> 100 µM
> 100 µM
> 100 µM

###

Test system: M14 melanoma
Test: NCI tumour cell line growth inhibition, 48 h
observed_property: TGI

Please review the following examples before continuing.
- CS(=O)(=O)Nc1ccc(Nc2cc[nH]c3ccc4nccc4c23)cc1: 30.4 µM
- CC(=O)OCC1OC(NC(=S)CCSc2nc3ccccc3c(=O)n2-c2ccccc2)C(OC(C)=O)C(OC(C)=O)C1OC(C)=O (stereo unspecified): > 100 µM

Hello, I would appreciate it if you could give TGI for each entry below.
1. C=C(C)[C@@H]1C/C=C(\COC(=O)[C@H](OC(C)=O)C(NC(=O)c2ccccc2)c2ccccc2)CC[C@H]2O[C@]2(C)CC/C=C(\C)CC1 (stereo partly specified)
2. Nc1ccccc1C(=O)CCc1c[nH]c2ccccc12
3. Cc1noc(NS(=O)(=O)c2ccc(NC(=O)c3ccc4nc5ccccc5c(Nc5ccc(S(=O)(=O)Nc6onc(C)c6C)cc5)c4c3)cc2)c1C
4. CC1OC(=O)C2CC3CCCCC3C(/C=C/C3CCCC(C)N3C)C12 (stereo unspecified)

Completion:
> 50 µM
> 100 µM
> 100 µM
> 100 µM

###

What TGI was measured for each of the following?
Tested on: PC-3 prostate
Assay: NCI tumour cell line growth inhibition, 48 h
Where a SMILES comes first, the peptide text is derived from it. The star is where a group is joined. CH2Cl = ClC*
Give bare numbers, in µM.

Please review the following examples before continuing.
• CC1=C(C(=O)Nc2ccc(Cl)c(Cl)c2)C(c2ccccc2Cl)NC(=S)N1 (configuration not stated) = 23.3
• O=C(C(Br)C(Br)c1ccccc1)C(Br)C(Br)c1ccccc1 (configuration not stated) = 5.4
• CCCCC/C=C1\CC(CO)(COC(=O)CC(C(C)C)C(C)C)OC1=O (configuration not stated) = 27.5
• CCC(CC)COC(=O)[C@H](C)N[P@](=O)(OC[C@H]1O[C@@](C#N)(c2ccc3c(N)ncnn23)[C@H](O)[C@@H]1O)Oc1ccccc1 = 14.2
• CS(=O)(=O)Nc1ccc(Nc2cc[nH]c3ccc4nccc4c23)cc1 = 30.3

Hello, I would appreciate it if you could give TGI for each entry below.
1. COC(=O)[C@@H]1CCCN1C(=O)[C@@H]1CCCN1C(=O)[C@H](Cc1ccccc1)NC(=S)Nc1cc(C(F)(F)F)cc(C(F)(F)F)c1
2. CC(=O)NC(CC(C)C)C(=O)NC(Cc1ccccc1)C(=O)CCl (stereo not drawn) (Ac-Leu-Phe-CH2Cl; configuration not given here)
3. COc1ccc(/C=C2\CS(=O)(=O)C/C(=C\c3ccc(OC)cc3)C2=O)cc1

Completion:
1. 26.2
2. 30.7
3. 18.1

###

Test system: LXFL 529 NSCLC
Assay: NCI tumour cell line growth inhibition, 48 h
What TGI was measured for each of the following?

Please review the following examples before continuing.
* O=NN(CCCl)C(=O)NC1CCC(C(=O)O)CC1 (centres undefined) | > 100 µM
* C[C@]12CC[C@@H]3c4ccc(O)cc4CC[C@H]3[C@@H]1CC[C@@H]2OC(=O)CCC1CCCC1 | 32.1 µM
* Cn1cnc([N+](=O)[O-])c1Sc1nc2ncccc2[nH]1 | > 100 µM

Prompt: Request body: readout TGI, system LXFL 529 NSCLC, query COC(=O)C12C3C4C1C1C2C3C41C(=O)O (centres undefined) . Return the value.
Completion: > 100 µM

###

What TGI was measured for each of the following?
System: SK-MEL-5 melanoma
Test: NCI tumour cell line growth inhibition, 48 h

- Cc1cc(O)c(C=NC(=S)C(N)=S)c(=O)o1: > 100 µM
- O=C1Nc2ccccc2S/C1=C\c1ccc(C(F)(F)F)cc1: > 100 µM
- CC1CN=C(N(C)C(=O)Nc2ccc(Cl)cc2)S1 (stereo not drawn): 22 µM
- C=CC(O)C#Cc1cnc(OC)nc1OC (stereo not drawn): > 100 µM
- CN=C(NC#N)N(Cc1ccccc1)Cc1ccccc1: > 100 µM

Hello, I would appreciate it if you could give TGI for each entry below.
1. CCCCCOC(=O)C(=O)Nc1n[nH]nc1C(N)=O
2. C#CC[N+](CCO)(CCO)CCCCCCCCCCCCCCCCCC
3. COC(=O)C12C3C4C1C1C2C3C41C(=O)O (stereo not drawn)

Completion:
1. > 100 µM
2. 32.1 µM
3. > 100 µM

###

Test system: KM12 colon
Experiment: NCI tumour cell line growth inhibition, 48 h
observed_property: TGI

- Cc1ccc(-c2c(C#N)c(N)[nH]c(=S)c2C#N)cc1: > 100 µM

Hello, I would appreciate it if you could give TGI for each entry below.
1. O=c1[nH]c2cc(Cl)ccc2nc1/C(=N/Nc1ccccc1)C(O)c1ccco1 (stereo not drawn)
2. CN(CCN(C)CCN(C)C(=O)Cc1ccc(Cl)c(Cl)c1)CCN1CCCC1

Completion:
> 100 µM
> 100 µM

###

System: M14 melanoma
Assay: NCI tumour cell line growth inhibition, 48 h
observed_property: log10(TGI) (log10 of the value in µM)
# values: log10(TGI), units µM

Please review the following examples before continuing.
- O=C1c2ccc3c4c(ccc(c24)C(=O)N1CCCNCc1ccccc1F)C(=O)N(CCCNCc1ccccc1F)C3=O: -0.53
- COc1ccc(NC(=O)C(=O)NO)c(OC)c1: 1.48

Hello, I would appreciate it if you could give log10(TGI) for each entry below.
1. O=C(O)CCc1nc2c(n1Cc1ccccc1)C(=O)c1ccccc1C2=O
2. COc1ccc(/C=N/Nc2nc(N)nc(N3CCCC3)c2C#N)cc1
3. CCCCC/C=C1\CC(CO)(COC(=O)CC(C(C)C)C(C)C)OC1=O (stereo not drawn)

Completion:
1.71
1.56
1.51

Prompt: Need log10(TGI), item CC(SC(=S)Nc1cccc(F)c1)C(=O)O (stereo not drawn)
Completion: 1.54

###

Tested on: IGROV1 ovarian
Test: NCI tumour cell line growth inhibition, 48 h
observed_property: TGI

• CC(=O)OCC1OC(NC(=S)CCSc2nc3ccccc3c(=O)n2-c2ccccc2)C(OC(C)=O)C(OC(C)=O)C1OC(C)=O (centres undefined) = 25.1 µM
• N#Cc1c(-c2ccccc2)n([O-])c2ccccc2[n+]1=O = > 100 µM
• Cc1cccc(NC(=S)Nc2ccc(Cl)cc2)n1 = > 100 µM
• O=C1c2[nH]cc(CN3CCN(CCO)CC3)c2C(=O)c2c1c(O)c1ccccc1c2O = 15.1 µM
• COC(=O)[C@@H]1CCCN1C(=O)[C@@H]1CCCN1C(=O)[C@H](Cc1ccccc1)NC(=S)Nc1cc(C(F)(F)F)cc(C(F)(F)F)c1 = > 100 µM
• O=[N+]([O-])c1ccc2nc3n(c2c1)C(c1c(F)cccc1F)SC3 (centres undefined) = > 100 µM
• O=C1C=CC(=O)N1n1c(Cc2ccccc2)n[nH]c1=O = > 100 µM
• O[C@H]1C=C2[C@H](C[C@@H]1O)CN1C[C@H]2c2cc3c(cc21)OCO3 = > 100 µM

Hello, I would appreciate it if you could give TGI for each entry below.
1. CN1CCN(Cc2ccc(NC(=O)c3nc4ccc5[nH]ncc5c4c4c3CCCC4)cc2C(F)(F)F)CC1
2. C=C(C)[C@@H]1C/C=C(\COC(=O)[C@H](OC(C)=O)C(NC(=O)c2ccccc2)c2ccccc2)CC[C@H]2O[C@]2(C)CC/C=C(\C)CC1 (some centres undefined)
3. Cn1cc2ccccc2c1-c1nc(F)nc(Oc2ccc3c(c2)CC[C@@H]2C3CC[C@@]3(C)C2CC[C@@H]3O)n1 (some centres undefined)
4. NS(=O)(=O)N(c1cc(C(F)(F)F)cc(C(F)(F)F)c1)C1CCN(Cc2ccc(C(F)(F)F)cc2)CC1
5. CC(C)OP(=O)(CCCCCCCCC/C=C/c1ccc2c(c1)OCCOCCOCCOCCO2)OC(C)C
6. CC1=C(C(=O)Nc2ccc(Cl)c(Cl)c2)C(c2ccccc2Cl)NC(=S)N1 (centres undefined)
7. Clc1ccc(C(c2ccc(Cl)cc2)c2cncnc2)cc1
8. COC(=O)CCC(C)[C@H]1CCC2C3C(C[C@H](OC(C)=O)[C@@]21C)[C@@]1(C)CCC2(C[C@H]1C[C@H]3OC(C)=O)OOC1(CCCCCCC1)OO2 (some centres undefined)

Completion:
1.67 µM
> 50 µM
15.3 µM
11.6 µM
16.2 µM
> 50 µM
33.8 µM
> 100 µM

Cited source for all entries: PubChem BioAssay (NCI)
